- experimental.target: HLA-DRB1*1101 (Homo sapiens, UniProt P01903+P01911, A100R/A169T/A87E/I96F/K41T/L162R/M171V/P40S/Q125H/Q178H/Q39Y/Q99D/R42S/S66Y/T262R/V115G/W38E)
- Sequence (P01903 26-254 limits assumed, other chains not shown): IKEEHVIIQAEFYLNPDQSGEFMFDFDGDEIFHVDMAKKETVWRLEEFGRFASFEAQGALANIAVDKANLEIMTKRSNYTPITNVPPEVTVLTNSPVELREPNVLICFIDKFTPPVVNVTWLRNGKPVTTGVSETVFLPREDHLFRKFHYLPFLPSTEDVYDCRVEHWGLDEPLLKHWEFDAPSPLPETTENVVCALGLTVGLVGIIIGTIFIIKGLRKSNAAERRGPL
- measurement.notes: biochemical
- Type: binding
- test.parameters: binding inhibition assay; NB = non-binder (no dose-dependent inhibition); read-out: DRB1*1101 IC50
Where a SMILES comes first, the peptide text is derived from it.
As shown below, each of these compounds has a reported IC50 value.
Entry rule: numbers only, all in nM.

{"compound": "CC[C@H](C)[C@H](NC(=O)[C@H](CC(C)C)NC(=O)[C@H](Cc1c[nH]cn1)NC(=O)[C@H](Cc1ccccc1)NC(=O)[C@H](CCCCN)NC(=O)[C@H](CO)NC(=O)[C@H](CCCCN)NC(C)=O)C(=O)N[C@@H](CO)C(=O)N[C@@H](CCCNC(=N)N)C(=O)N[C@@H](CC(N)=O)C(=O)N[C@@H](CO)C(=O)N[C@@H](CCCNC(=N)N)C(=O)N[C@H](C(=O)N[C@@H](CC(N)=O)C(=O)N[C@@H](CCC(N)=O)C(=O)N[C@@H](Cc1ccc(O)cc1)C(N)=O)[C@@H](C)O [RIPR_009] (Ac-KSKFHLISRNSRTNQY-NH2)", "measurement": 75}

What does the record list as IC50 for CSCC[C@H](N)C(=O)N[C@@H](CCCNC(=N)N)C(=O)N[C@@H](CCCCN)C(=O)N[C@@H](CC(C)C)C(=O)N[C@@H](Cc1ccc(O)cc1)C(=O)N[C@@H](CS)C(=O)N[C@H](C(=O)N[C@@H](CC(C)C)C(=O)N[C@@H](CC(C)C)C(=O)N[C@@H](CC(C)C)C(=O)N[C@@H](CO)C(=O)N[C@@H](C)C(=O)N[C@@H](Cc1ccccc1)C(=O)N[C@@H](CCC(=O)O)C(=O)N[C@@H](Cc1ccccc1)C(=O)N[C@H](C(=O)N[C@@H](Cc1ccc(O)cc1)C(N)=O)[C@@H](C)O)C(C)C [AMA1_001] (H-MRKLYCVLLLSAFEFTY-NH2) ?
320
